# TARGET OR SYSTEM: Muscarinic acetylcholine receptor
# MEASUREMENT DESCRIPTION: Ability to inhibit binding of [3H]QNB to Muscarinic acetylcholine receptor in cultured N4TG1 neuroblastoma cells at 1e-8 to 1e-3 M
Here, each record is paired with measured I 50 data.
EXPERIMENTAL READOUT: I 50 (µM)

>  <COMPOUND>
CC(C)CSCC1CC(n2cnc3c(N)nccc32)C(O)C1O (centres undefined)

>  <EXPERIMENTAL READOUT>
I 50

>  <NUMERIC VALUE>
210

$$$$
>  <COMPOUND>
CC(C)CSC[C@H]1OC(n2cnc3c(N)ncnc32)[C@H](O)[C@@H]1O (some centres undefined)

>  <EXPERIMENTAL READOUT>
I 50

>  <NUMERIC VALUE>
1500

$$$$
>  <COMPOUND>
CC(C)CSC[C@H]1OC(n2cnc3c(N)nccc32)[C@H](O)[C@@H]1O (some centres undefined)

>  <EXPERIMENTAL READOUT>
I 50

>  <NUMERIC VALUE>
39

$$$$
>  <COMPOUND>
CC(C)CSC[C@H]1OC(n2cnc3c(N)ccnc32)[C@H](O)[C@@H]1O (some centres undefined)

>  <EXPERIMENTAL READOUT>
I 50

>  <NUMERIC VALUE>
52

$$$$
